- System: MDA-MB-231;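 further: viability read by CCK-8 kit in 96-well plates, part of a combination screen pairing lipid-metabolism-targeting compounds with erastin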
- method.description: relative cell viability, compound + erastin, vs DMSO (fraction of DMSO control); higher = less growth inhibition
- conditions: 72 h
Counter-ions that a name gives are not always drawn.
In this section we review reported relative cell viability values for a set of compounds.

Field: example entries. Status: answers known.
{"compound": "Nc1ncnc2c1ncn2[C@@H]1O[C@H](COP(=O)(O)O)[C@@H](O)[C@H]1O [Adenosine 5'-monophosphate] + CCOc1ccccc1-n1c(C(C)N2CCN(C(=O)COc3ccc(Cl)cc3)CC2)nc2ccccc2c1=O [erastin]", "measured.metric": "relative cell viability", "reading": 0.716}
{"compound": "N=C(N)NC(=N)NCCc1ccccc1 [Phenformin hydrochloride] + CCOc1ccccc1-n1c(C(C)N2CCN(C(=O)COc3ccc(Cl)cc3)CC2)nc2ccccc2c1=O [erastin]", "measured.metric": "relative cell viability", "reading": 0.999}
{"compound": "CC(C)c1nc(N(C)S(C)(=O)=O)nc(-c2ccc(F)cc2)c1/C=C/[C@@H](O)C[C@@H](O)CC(=O)O [Rosuvastatin] + CCOc1ccccc1-n1c(C(C)N2CCN(C(=O)COc3ccc(Cl)cc3)CC2)nc2ccccc2c1=O [erastin]", "measured.metric": "relative cell viability", "reading": 0.781}
{"compound": "CC(C)c1onc(-c2c(Cl)cccc2Cl)c1COc1ccc(/C=C/c2cccc(C(=O)O)c2)c(Cl)c1 + CCOc1ccccc1-n1c(C(C)N2CCN(C(=O)COc3ccc(Cl)cc3)CC2)nc2ccccc2c1=O [erastin]", "measured.metric": "relative cell viability", "reading": 0.762}
{"compound": "CN(CCOc1ccc(CC2SC(=O)NC2=O)cc1)c1ccccn1 (centres undefined) [Rosiglitazone HCl] + CCOc1ccccc1-n1c(C(C)N2CCN(C(=O)COc3ccc(Cl)cc3)CC2)nc2ccccc2c1=O [erastin]", "measured.metric": "relative cell viability", "reading": 0.774}

Query: relative cell viability for CN(CCOc1ccc(CC2SC(=O)NC2=O)cc1)c1ccccn1 (centres undefined) [Rosiglitazone maleate] + CCOc1ccccc1-n1c(C(C)N2CCN(C(=O)COc3ccc(Cl)cc3)CC2)nc2ccccc2c1=O [erastin] ?
Reply: 0.965

Query: relative cell viability for C=C(C)[C@@H]1CCC2=CC(=O)C[C@@H](C)[C@]2(C)C1 [Nootkatone] + CCOc1ccccc1-n1c(C(C)N2CCN(C(=O)COc3ccc(Cl)cc3)CC2)nc2ccccc2c1=O [erastin] ?
Reply: 0.706

Query: relative cell viability for CCNC1(C(N)=O)CCN(c2ncnc3c2nc(-c2ccccc2Cl)n3-c2ccc(Cl)cc2)CC1 [Otenabant] + CCOc1ccccc1-n1c(C(C)N2CCN(C(=O)COc3ccc(Cl)cc3)CC2)nc2ccccc2c1=O [erastin] ?
Reply: 0.459

Query: relative cell viability for O=C(Nc1cccnc1)N1CCC(Cc2cccc(Oc3ccc(C(F)(F)F)cn3)c2)CC1 + CCOc1ccccc1-n1c(C(C)N2CCN(C(=O)COc3ccc(Cl)cc3)CC2)nc2ccccc2c1=O [erastin] ?
Reply: 0.374
